Experimental Target: mouse ADAMTS7 (Mus musculus, UniProt Q68SA9)
Construct: Full-length mouse Adamts7 1-1857 (Uniprot Q68SA9, WT or E373Q catalytic mutant); expressed in transfected cells; host or cells: Human Coronary Artery Smooth Muscle Cells (HCA-SMC, Lonza), adenovirus 50 MOI
Sequence (Q68SA9 221-1657): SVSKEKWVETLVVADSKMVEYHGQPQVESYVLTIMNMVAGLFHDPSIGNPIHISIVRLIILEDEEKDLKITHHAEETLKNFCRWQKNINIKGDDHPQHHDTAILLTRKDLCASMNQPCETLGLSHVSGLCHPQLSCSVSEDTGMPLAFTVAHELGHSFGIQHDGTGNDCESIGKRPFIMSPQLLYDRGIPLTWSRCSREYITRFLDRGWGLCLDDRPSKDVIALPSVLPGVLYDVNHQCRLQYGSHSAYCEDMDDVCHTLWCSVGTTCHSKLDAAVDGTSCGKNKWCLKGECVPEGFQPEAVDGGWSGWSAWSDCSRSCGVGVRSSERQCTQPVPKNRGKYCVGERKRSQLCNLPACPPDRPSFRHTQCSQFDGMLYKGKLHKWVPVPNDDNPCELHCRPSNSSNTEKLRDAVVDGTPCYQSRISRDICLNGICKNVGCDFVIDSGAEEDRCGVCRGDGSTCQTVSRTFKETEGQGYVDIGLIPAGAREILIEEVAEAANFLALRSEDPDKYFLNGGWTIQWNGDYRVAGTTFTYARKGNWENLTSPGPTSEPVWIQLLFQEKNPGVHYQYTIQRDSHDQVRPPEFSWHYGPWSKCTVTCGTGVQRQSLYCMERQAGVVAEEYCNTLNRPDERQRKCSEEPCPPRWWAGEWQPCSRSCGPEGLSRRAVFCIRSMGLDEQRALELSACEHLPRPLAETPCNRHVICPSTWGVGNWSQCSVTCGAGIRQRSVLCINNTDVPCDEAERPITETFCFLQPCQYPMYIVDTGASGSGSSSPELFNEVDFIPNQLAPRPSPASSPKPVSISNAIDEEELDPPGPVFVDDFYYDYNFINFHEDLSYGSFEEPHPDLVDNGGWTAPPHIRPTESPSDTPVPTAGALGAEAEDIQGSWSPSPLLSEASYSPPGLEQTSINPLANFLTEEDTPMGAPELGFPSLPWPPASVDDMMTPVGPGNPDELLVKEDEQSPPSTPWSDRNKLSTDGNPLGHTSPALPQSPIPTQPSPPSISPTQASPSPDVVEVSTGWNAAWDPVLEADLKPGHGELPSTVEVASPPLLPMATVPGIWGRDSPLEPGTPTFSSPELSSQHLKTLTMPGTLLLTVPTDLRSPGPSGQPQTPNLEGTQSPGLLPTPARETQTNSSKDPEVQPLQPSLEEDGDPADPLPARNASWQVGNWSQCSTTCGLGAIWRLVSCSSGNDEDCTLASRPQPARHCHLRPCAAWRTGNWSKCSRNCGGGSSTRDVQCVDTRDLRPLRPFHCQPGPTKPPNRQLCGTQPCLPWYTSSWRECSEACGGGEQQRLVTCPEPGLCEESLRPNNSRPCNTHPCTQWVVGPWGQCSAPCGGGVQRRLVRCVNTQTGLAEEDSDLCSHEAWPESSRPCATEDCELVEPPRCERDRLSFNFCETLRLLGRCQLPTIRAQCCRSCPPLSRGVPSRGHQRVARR
Test Method Notes: TMT10 TAILS N-terminomics, SMC1 experiment (Ad-mADAMTS7 WT vs EQ vs Luc, technical replicates, trypsin digest)
Assay type: cell-based
Cond: TAILS neo-N-terminal peptide abundance; log fold change, Ad-mADAMTS7 WT over Luc

[
  {
    "Substance": "FLNA_612 (SVEGPSQAKIECDDKGDGSCDVR; listed as Homo sapiens)",
    "Experimental Target": "mouse ADAMTS7 (Mus musculus, UniProt Q68SA9)",
    "logFC.mWT.over.Lux": 1.87
  },
  {
    "Substance": "FBN1_29 (LEAGNVKETR; listed as Homo sapiens)",
    "Experimental Target": "mouse ADAMTS7 (Mus musculus, UniProt Q68SA9)",
    "logFC.mWT.over.Lux": 4.70
  },
  {
    "Substance": "COL1A2_731 (AAGQPGAKGER; listed as Homo sapiens)",
    "Experimental Target": "mouse ADAMTS7 (Mus musculus, UniProt Q68SA9)",
    "logFC.mWT.over.Lux": 0.84
  },
  {
    "Substance": "POSTN_413 (FSDDTLSMDQR; listed as Homo sapiens)",
    "Experimental Target": "mouse ADAMTS7 (Mus musculus, UniProt Q68SA9)",
    "logFC.mWT.over.Lux": 2.29
  },
  {
    "Substance": "FN1_886 (NQESTPVVIQQETTGTPR; listed as Homo sapiens)",
    "Experimental Target": "mouse ADAMTS7 (Mus musculus, UniProt Q68SA9)",
    "logFC.mWT.over.Lux": 1.70
  },
  {
    "Substance": "NUCB1_228 (LKEVWEELDGLDPNR; listed as Homo sapiens)",
    "Experimental Target": "mouse ADAMTS7 (Mus musculus, UniProt Q68SA9)",
    "logFC.mWT.over.Lux": 1.70
  },
  {
    "Substance": "COL1A2_91 (GPMGLMGPR; listed as Homo sapiens)",
    "Experimental Target": "mouse ADAMTS7 (Mus musculus, UniProt Q68SA9)",
    "logFC.mWT.over.Lux": 1.09
  },
  {
    "Substance": "POLR3G_88 (LFCSHWSHIPGFK; listed as Homo sapiens)",
    "Experimental Target": "mouse ADAMTS7 (Mus musculus, UniProt Q68SA9)",
    "logFC.mWT.over.Lux": 1.51
  },
  {
    "Substance": "LTBP2_1023 (GKCTNLEGSFR; listed as Homo sapiens)",
    "Experimental Target": "mouse ADAMTS7 (Mus musculus, UniProt Q68SA9)",
    "logFC.mWT.over.Lux": 0.74
  },
  {
    "Substance": "FN1_2217 (FQDTSEYIISCHPVGTDEEPLQFR; listed as Homo sapiens)",
    "Experimental Target": "mouse ADAMTS7 (Mus musculus, UniProt Q68SA9)",
    "logFC.mWT.over.Lux": 2.41
  },
  {
    "Substance": "LTBP2_1371 (SGQKGHAPCSSVLGR; listed as Homo sapiens)",
    "Experimental Target": "mouse ADAMTS7 (Mus musculus, UniProt Q68SA9)",
    "logFC.mWT.over.Lux": 1.24
  },
  {
    "Substance": "LOX_126 (QAGYSTSR; listed as Homo sapiens)",
    "Experimental Target": "mouse ADAMTS7 (Mus musculus, UniProt Q68SA9)",
    "logFC.mWT.over.Lux": 1.61
  },
  {
    "Substance": "HSPG2_2333 (LAYPAGSTQPIR; listed as Homo sapiens)",
    "Experimental Target": "mouse ADAMTS7 (Mus musculus, UniProt Q68SA9)",
    "logFC.mWT.over.Lux": 1.93
  },
  {
    "Substance": "COL1A2_1127 (SLRPKDYEVDATLKSLNNQIETLLTPEGSR; listed as Homo sapiens)",
    "Experimental Target": "mouse ADAMTS7 (Mus musculus, UniProt Q68SA9)",
    "logFC.mWT.over.Lux": 2.23
  }
]
